Assignment: determine reported kcat/Km (mM^-1 · min^-1) for the given proteins.
study.system: T1, Pro-Phe-Arg-MCA
T1 chain: PFR
The response must contain the number and no unit.

## Task Quick check: kcat/Km (mM^-1 · min^-1) of Medaka EP-1 serine protease domain mutant T105E (protein) VVGGVNAEKGAWPWMVSLHWRGRHGCGASLIGRDWLLTAAHCVYGKNTHLQYWSAVLGLHAQSSMNSQEVQIRQVDRIIINKNYNRREKEADIAMMHLQQPVNFTEWVLPVCLASEDQHFPAGRRCFIAGWGRDAEGGSLPDILQEAEVPLVDQDECQRLLPEYTFTSSMLCAGYPEGGVDSCQGDSGGPLMCLEDARWTLIGVTSFGVGCGRPERPGAYARVSAFTSWIAETRRSSFSDLD ?
## Result 12

## Task # kcat/Km (mM^-1 · min^-1) lookup, item Medaka EP-1 serine protease domain mutant K63R (protein) VVGGVNAEKGAWPWMVSLHWRGRHGCGASLIGRDWLLTAAHCVYGRNTHLQYWSAVLGLHAQSSMNSQEVQIRQVDRIIINKNYNRRTKEADIAMMHLQQPVNFTEWVLPVCLASEDQHFPAGRRCFIAGWGRDAEGGSLPDILQEAEVPLVDQDECQRLLPEYTFTSSMLCAGYPEGGVDSCQGDSGGPLMCLEDARWTLIGVTSFGVGCGRPERPGAYARVSAFTSWIAETRRSSFSDLD
## Result 10

## Task What value of kcat/Km (mM^-1 · min^-1) has been recorded for this entry: Medaka EP-1 serine protease domain mutant P193E (protein) VVGGVNAEKGAWPWMVSLHWRGRHGCGASLIGRDWLLTAAHCVYGKNTHLQYWSAVLGLHAQSSMNSQEVQIRQVDRIIINKNYNRRTKEADIAMMHLQQPVNFTEWVLPVCLASEDQHFPAGRRCFIAGWGRDAEGGSLPDILQEAEVPLVDQDECQRLLPEYTFTSSMLCAGYEEGGVDSCQGDSGGPLMCLEDARWTLIGVTSFGVGCGRPERPGAYARVSAFTSWIAETRRSSFSDLD
## Result 27
